Tested on: SK-OV-3
Assay: NCI tumour cell line growth inhibition, 48 h
Active and inactive are the calls of the source. No stated cut-off is given here; in the data, active = GI50 up to about 1.1 µM and inactive = higher.
Item-by-item account of GI50

These recorded examples may help you get a feel for the data.
[N-]=[N+]=NC1(c2ccccc2)C(=O)Nc2ccccc2C1=O (centres undefined)	55.6 µM (inactive)
c1csc(-c2nn3c(C45CC6CC(CC(C6)C4)C5)nnc3s2)c1	> 100 µM (inactive)
CC(=O)C1C(=O)C(C(C)=O)C2C3C=CC(C3)C12 (centres undefined)	> 100 µM (inactive)
COc1cccc(NC(=S)Nn2c(C)nc3ccccc3c2=O)c1	> 100 µM (inactive)

Input line: What value of measured GI50 is listed for O=C1c2c(O)cccc2C(C2OC(CO)C(O)C(O)C2O)c2cc(CO)cc(O)c21 (centres undefined) ?
Output line: > 100 µM (inactive)

Input line: What value of measured GI50 is listed for C=C1C(=O)O[C@H]2[C@H](OC(C)=O)[C@@H](C)CCC/C(C)=C/CC[C@@]3(C)O[C@@H]3C[C@@H]12 ?
Output line: 15.6 µM (inactive)

Input line: What value of measured GI50 is listed for CC(C)(C)C(=O)Nc1c(C=O)ccc2[nH]cnc12 ?
Output line: > 100 µM (inactive)

Input line: What value of measured GI50 is listed for Cc1cc2c(=O)n(-c3ccc(F)cc3)c(C)nc2c(C(=O)O)c1C ?
Output line: > 100 µM (inactive)

Input line: What value of measured GI50 is listed for COc1cc(N(CCC#N)CCC#N)ccc1C(=N/NC(=O)c1cc(Br)ccc1O)/N=N/c1ccccc1 ?
Output line: 31.1 µM (inactive)

Input line: What value of measured GI50 is listed for CN(C(=O)C12C3C4C1C1C2C3C41C#N)C(C)(C)C (centres undefined) ?
Output line: > 100 µM (inactive)

Input line: What value of measured GI50 is listed for CCCCN(CCCC)CC(O)c1cc(-c2ccc(C(F)(F)F)cc2)nc(-c2ccc(C(F)(F)F)cc2)c1 (centres undefined) ?
Output line: > 100 µM (inactive)

---

Tested on: SK-MEL-5
Test: NCI tumour cell line growth inhibition, 48 h
Active and inactive are the calls of the source. Cut-off read from the data, not from the text of the source: active = GI50 up to about 1.1 µM and inactive = higher.
Write down the outcome that applies. Available outcomes: yes for active, no for inactive

Input line: Look up the recorded call for COC(=O)c1csc(-c2nc(CCNC(=O)OC(C)(C)C)sc2Br)n1 in this test.
Output line: no

Input line: Look up the recorded call for O=C(CN1CCOCC1)CC(O)(C(F)(F)F)C(F)(F)F in this test.
Output line: no

Input line: Look up the recorded call for CC(C)c1cc(C(C)C)c(Cl)c(Cl)c1O.CC(C)c1cc(Cl)c(O)c(C(C)C)c1Cl in this test.
Output line: yes

Input line: Look up the recorded call for O=S1(=O)OCc2ccccc21 in this test.
Output line: no

Input line: Look up the recorded call for COc1ccc(C(c2ccc(OC)cc2)N2C(=O)CCC2C(=O)O)cc1 (stereo not given) in this test.
Output line: no

Input line: Look up the recorded call for CC(C)(C)C(=O)Nc1c(C=O)ccc2[nH]cnc12 in this test.
Output line: no

---

Tested on: UO-31
Experiment: NCI tumour cell line growth inhibition, 48 h
Active and inactive are the calls of the source. Cut-off read from the data, not from the text of the source: active = GI50 up to about 1.1 µM and inactive = higher.
Item-by-item account of GI50

These recorded examples may help you get a feel for the data.
C/C(CC(=O)Nc1cccc(Cl)c1C)=N\N=C(N)N	> 100 µM (inactive)
O=C1C=CC2OC(c3ccccc3)C(O)C2O1 (configuration not stated)	10.2 µM (inactive)
CS(=O)(=O)c1nc(-c2cc3c(c(S(C)(=O)=O)n2)CCC3)cc2c1CCCC2	7.71 µM (inactive)
COc1ccc(-n2c(=O)c3nc(S)[nH]c3n(-c3ccc(OC)cc3)c2=S)cc1	> 100 µM (inactive)
CCOc1nc(OCC)nc(-c2cccn2-c2ccccc2)n1	22.1 µM (inactive)

Input line: State its GI50 on UO-31: COc1cc(/C=C(\OC(C)=O)c2ccc3c(c2)OCO3)cc(OC)c1OC
Output line: 4.15 µM (inactive)

Input line: State its GI50 on UO-31: CCn1c(SCC(=O)N/N=C2\SCC(=O)N2c2ccc(C)cc2)nc2ccccc2c1=O
Output line: 15.1 µM (inactive)

Input line: State its GI50 on UO-31: CC1=NN(C(=O)c2ccccc2O)C(=O)/C1=C/c1ccco1
Output line: 0.404 µM (active)

Input line: State its GI50 on UO-31: CCC(=O)N(c1ccccc1)C(C)CN1CCC(O)(c2cccc(C(F)(F)F)c2)CC1 (configuration not stated)
Output line: 28.8 µM (inactive)

Input line: State its GI50 on UO-31: COc1cc(OC)c(/C=C/c2cnc3ccccc3n2)c(OC)c1
Output line: 0.0561 µM (active)

Input line: State its GI50 on UO-31: CSCSCC(CO)NC(=O)/C=C\c1c(C)[nH]c(=O)[nH]c1=O (configuration not stated)
Output line: 14.9 µM (inactive)

Input line: State its GI50 on UO-31: NC(=O)C(=O)N/N=C1/c2ccccc2CC1C1(O)C(=O)Nc2c(Cl)cc(Cl)cc21 (configuration not stated)
Output line: > 100 µM (inactive)

Input line: State its GI50 on UO-31: O=C(Nc1ccc([N+](=O)[O-])cc1)C1C(=O)C(=O)N(c2ccc([N+](=O)[O-])cc2)C1=O (configuration not stated)
Output line: 78 µM (inactive)

Input line: State its GI50 on UO-31: CN(C)c1ccc(/C=C/c2nc3ccccc3s2)cc1
Output line: 8.53 µM (inactive)

Input line: State its GI50 on UO-31: CCN(CC)C(=O)C(C)n1cc(C)c(=O)[nH]c1=O (configuration not stated)
Output line: > 100 µM (inactive)

Input line: State its GI50 on UO-31: C1C2CC3CC1CC(Nc1nc(NC45CC6CC(CC(C6)C4)C5)nc(NC45CC6CC(CC(C6)C4)C5)n1)(C2)C3
Output line: > 38.3 µM (inactive)

Input line: State its GI50 on UO-31: CN1CCCNCCN(CCc2ccccn2)CCCN(C)CC1
Output line: > 100 µM (inactive)

Input line: State its GI50 on UO-31: Oc1ccc(Cn2c(-c3ccc(O)cc3)nc3ccccc32)cc1
Output line: > 100 µM (inactive)

Input line: State its GI50 on UO-31: CCOc1cccc(/C=N/N=C2\C(=O)Nc3c(Cl)cc(Cl)cc32)c1O
Output line: 34 µM (inactive)

Input line: State its GI50 on UO-31: Cc1cc2ncn(CC(=O)O)c2cc1C
Output line: > 100 µM (inactive)

Input line: State its GI50 on UO-31: CCN(CC)CCNC(=O)c1cccc2cc3ccccc3nc12
Output line: 3.45 µM (inactive)

Input line: State its GI50 on UO-31: CCCC(=O)OC1CC(n2cc(F)c(=O)[nH]c2=O)OC1CO (configuration not stated)
Output line: 0.362 µM (active)
